Origin of values: paper PMC12136788

The following binders are listed with their measured binding signal values.
Molecular target: T1, UNK ZnF1-3 (human, UniProt Q9C0B0 31-174)
T1 sequence: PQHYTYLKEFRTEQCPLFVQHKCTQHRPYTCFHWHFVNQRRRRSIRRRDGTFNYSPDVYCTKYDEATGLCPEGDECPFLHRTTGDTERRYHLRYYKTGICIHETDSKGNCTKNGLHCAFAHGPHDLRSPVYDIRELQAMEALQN
Assay: nsRBNS (natural sequence RNA bind-n-seq); RBNS binding buffer (assumed for nsRBNS): 25 mM Tris pH 7.5, 150 mM KCl, 3 mM MgCl2, 0.01% Triton X-100, 500 ug/ml BSA, 20 U/ml SUPERase-In, 4 C; UNK is unkempt and MSI1 is Musashi-1; names of the RNAs are library labels; protein concentration not given here; high values mean tight binding
In all, about 24,000 sequences were measured (“enrichment r”: median about 0.99, highest 2% from about 3.7 on). The sample as a whole holds a higher share of the highest values than the screen did.
Please provide the amount together with its unit, number first.

Guide cases for binding signal, answers given:
INSERT INTO results (binder, recorded_metric, observed) VALUES
  ('243667512_243667632_2619_3pUTR_ENSG00000117020_ENST00000366539|human|control|control (ssRNA) RNA: GGGAGUUCUACAGUCCGACGAUCUUCUCAUCACUAAAAAAUAAAUACUACUGCAAUAUAAACAAAAUCAUAAAAGGACAUUCAAAGUUUCAACAUCUGAGAAAAAGCUAAUUCACGUAGAACUGAAAGUAAAAAAUUAAAUAACAACAGAGGAUUGAGCAUCA', 'binding signal', '5.18 enrichment R'),
  ('58873449_58873569_2464_3pUTR_ENSMUSG00000025092_ENSMUST00000066285|mouse|control|control (ssRNA) RNA: GGGAGUUCUACAGUCCGACGAUCAUCCAAGAUCAUUUUAAAAGACCUCCAAUGAAUGUUUCCCCCACCCUACCCUGCCCCCGGCACAGAGUGGGCGUCCUAAGCCUUCCCUUUCAGAGCCCUCUUCCAAGCAGGCUGCACCCACAACAGAGGAUUGAGCAUCA', 'binding signal', '5.4 enrichment R'),
  ('chr9:104153060:104153061:-_ENSG00000136897_ENST00000374865|hu_mus|FALSE|FALSE (ssRNA) RNA: GGGAGUUCUACAGUCCGACGAUCAUGAGAUUCCAAGCGACUCUGGAGAUCACUGGGCGGUGUGUAUGCUCGGCUUCGUAAGGGUGGACACACCAAAACAGGUUCUUUUUUCACUUCUUCCACUGUCUCUGCCACAACUGGCUCCAACAGAGGAUUGAGCAUCA', 'binding signal', '0.821 enrichment R');

Below: the item to evaluate.
Quick check: binding signal of 120959283_120959403_3001_3pUTR_ENSG00000154114_ENST00000422003|human|control|control (ssRNA) RNA: GGGAGUUCUACAGUCCGACGAUCUGAAGAAUUUACAAGUCACCUAAAAAUUUCAUAAAAAAAUUAAAUUUGUAGGAGGGGUAGAAUUAUGUAACAAAGGUCAAAAGGUCAAAUGCAAUCAGAUAAUAACUGCAUUCUUUGAAACAACAGAGGAUUGAGCAUCA ?
4.1 enrichment R
